Parameter exon inclusion enrichment index: see the listing below.
B1: mRNA-splicing (parent)
chain: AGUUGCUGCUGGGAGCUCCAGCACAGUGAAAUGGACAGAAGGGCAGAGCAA

# Variants of: B1
# run_description: exon inclusion enrichment index; higher = more inclusion; WT1 exon 5 minigene, HEK293
# answer = number (no unit)

Known results for variants:
In [3]: df
Out[3]:
                             mut    number
0       G5A C6U U7A G8U C9A A29U    0.0147
1  G5A C6U U7A G8U C9A C44U A45C       0.1
2      G5A C6G U7G C9A A29U A30C  0.000854

[Q] Look at this variant and give its reported exon inclusion enrichment index. C6A U7C C9A U10C A45C G46A
[A] 1.88

[Q] Quick one: exon inclusion enrichment index for G5A C6G U7G C9A C44A ?
[A] 0.00167
